Every entry's value here was drawn from ChEMBL document CHEMBL1795236.

tested on: Plasmodium falciparum; experiment: Inhibition of Plasmodium falciparum recombinant falcipain 2 using fluorogenic ZFR-AMC substrate at 5 uM after 30 mins by fluorimetric assay
Peptide text beside a SMILES is read from it.
Reported values of inhibition for individual entries
endpoint.label: inhibition (%)

molecule	readout.value
CC[C@H](C)[C@H](NC(=O)CNC(=O)[C@H](CO)NC(=O)[C@@H](NC(=O)[C@H](CC(C)C)NC(=O)[C@H](CCC(N)=O)NC(=O)[C@H](CCCNC(=N)N)NC(=O)[C@H]1CC[C@@H](NC(=O)[C@@H](NC(=O)[C@@H]2CCCN2C(=O)[C@H](C)NC(=O)CNC(=O)[C@H](CC(C)C)NC(=O)[C@H](CC(C)C)NC(=O)[C@@H](N)CCCNC(=N)N)C(C)C)CC1)C(C)C)C(N)=O (HELM PEPTIDE1{R.L.L.G.A.P.V.[O=C([C@H]1CC[C@@H](N[*:1])CC1)[*:2]].R.Q.L.V.S.G.I.[am]}$$$$V2.0)	63
CC[C@H](C)[C@H](NC(=O)CNC(=O)[C@H](CO)NC(=O)[C@@H](NC(=O)[C@H](CC(C)C)NC(=O)[C@H](CCC(N)=O)NC(=O)[C@H]1CC[C@@H](NC(=O)[C@@H]2CCCN2C(=O)[C@H](C)NC(=O)CNC(=O)[C@H](CC(C)C)NC(=O)[C@H](CC(C)C)NC(=O)[C@@H](N)CCCNC(=N)N)CC1)C(C)C)C(N)=O (HELM PEPTIDE1{R.L.L.G.A.P.[O=C([C@H]1CC[C@@H](N[*:1])CC1)[*:2]].Q.L.V.S.G.I.[am]}$$$$V2.0)	50
CC[C@H](C)[C@H](NC(=O)CNC(=O)[C@H](CO)NC(=O)[C@@H](NC(=O)[C@H](CC(C)C)NC(=O)[C@H](CCC(N)=O)NC(=O)CCCNC(=O)[C@@H]1CCCN1C(=O)[C@H](C)NC(=O)CNC(=O)[C@H](CC(C)C)NC(=O)[C@H](CC(C)C)NC(=O)[C@@H](N)CCCNC(=N)N)C(C)C)C(N)=O (HELM PEPTIDE1{R.L.L.G.A.P.[O=C(CCCN[*:1])[*:2]].Q.L.V.S.G.I.[am]}$$$$V2.0)	44
CC[C@H](C)[C@H](NC(=O)CNC(=O)[C@H](CO)NC(=O)[C@@H](NC(=O)[C@H](CC(C)C)NC(=O)[C@H](CCC(N)=O)NC(=O)[C@@H]1CSSC[C@H](NC(=O)[C@@H]2CCCN2C(=O)[C@H](C)NC(=O)CNC(=O)[C@H](CC(C)C)NC(=O)[C@H](CC(C)C)NC(=O)[C@@H](N)CCCNC(=N)N)C(=O)NCCCC(=O)N1)C(C)C)C(N)=O (HELM PEPTIDE1{R.L.L.G.A.P.C.[O=C(CCCN[*:1])[*:2]].C.Q.L.V.S.G.I.[am]}$PEPTIDE1,PEPTIDE1,7:R3-9:R3$$$V2.0)	39

###

Items are presented alongside their recorded inhibition.
system: Plasmodium falciparum; test: Inhibition of Plasmodium falciparum recombinant falcipain 2 using fluorogenic ZFR-AMC substrate at 5 uM after 30 mins by fluorimetric assay
Peptide text beside a SMILES is read from it.

molecule	inhibition [%]
CC[C@H](C)[C@H](NC(=O)CNC(=O)[C@H](CO)NC(=O)[C@@H](NC(=O)[C@H](CC(C)C)NC(=O)[C@H](CCC(N)=O)NC(=O)CCCNC(=O)[C@@H]1CCCN1C(=O)[C@H](C)NC(=O)CNC(=O)[C@H](CC(C)C)NC(=O)[C@H](CC(C)C)NC(=O)[C@@H](N)CCCNC(=N)N)C(C)C)C(=O)NCCC(=O)NCCC(=O)N1CCC[C@H]1C(=O)N[C@@H](Cc1c[nH]c2ccccc12)C(N)=O (HELM PEPTIDE1{R.L.L.G.A.P.[O=C(CCCN[*:1])[*:2]].Q.L.V.S.G.I.[bAla].[bAla].P.W.[am]}$$$$V2.0)	32
CC[C@H](C)[C@H](NC(=O)CNC(=O)[C@H](CO)NC(=O)[C@@H](NC(=O)[C@H](CC(C)C)NC(=O)[C@@H]1CSSC[C@H](NC(=O)[C@H](C)NC(=O)CNC(=O)[C@H](CC(C)C)NC(=O)[C@H](CC(C)C)NC(=O)[C@@H](N)CCCNC(=N)N)C(=O)NCCCC(=O)N1)C(C)C)C(N)=O (HELM PEPTIDE1{R.L.L.G.A.C.[O=C(CCCN[*:1])[*:2]].C.L.V.S.G.I.[am]}$PEPTIDE1,PEPTIDE1,6:R3-8:R3$$$V2.0)	39
